Listed below: residual activity values for each entry.
# test-target: MAPK3 (human) (UniProt P27361)
# Sequence (P27361 whole entry, looked up): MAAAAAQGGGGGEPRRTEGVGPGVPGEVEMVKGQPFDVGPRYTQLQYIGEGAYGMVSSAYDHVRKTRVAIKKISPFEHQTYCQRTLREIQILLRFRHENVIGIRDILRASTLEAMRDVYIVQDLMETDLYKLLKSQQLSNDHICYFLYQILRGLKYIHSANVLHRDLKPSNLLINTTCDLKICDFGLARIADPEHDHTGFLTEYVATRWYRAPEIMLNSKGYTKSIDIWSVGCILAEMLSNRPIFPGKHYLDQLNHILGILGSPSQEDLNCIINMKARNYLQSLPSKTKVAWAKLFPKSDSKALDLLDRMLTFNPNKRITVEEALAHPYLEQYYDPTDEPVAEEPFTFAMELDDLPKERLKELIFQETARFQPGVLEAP
# protocol-details: radiometric filter-binding kinase assay, Kinase HotSpot
# setup-conditions: compound 0.5 µM; ATP 10 µM
Write the value in % as a bare number.

structure-smiles-string: c1ccc(-c2n[nH]cc2-c2ccnc3ccccc23)nc1
residual activity, %: 101

structure-smiles-string: O=C1NC(=O)C(c2cn(CCCn3ccnc3)c3ccccc23)=C1Nc1ccccc1
residual activity, %: 103

structure-smiles-string: O=S(=O)(c1cccc2cnccc12)N1CCCNCC1
residual activity, %: 96.1

structure-smiles-string: Cc1[nH]c(/C=C2\C(=O)Nc3ccc(S(=O)(=O)N(C)c4cccc(Cl)c4)cc32)c(C)c1C(=O)N1CCN(C)CC1
residual activity, %: 106

# ---- query compound ----
Which value of residual activity has been reported for O=C1NC(=O)/C(=C/c2ccc3c(c2)OC(F)(F)O3)S1 in the records?
91.6
